Reported IC50 values for the following compounds.
Test system: IST-MES1;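 further: growth inhibition of IST-MES1 cells, measured with a cell viability assay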
assayDetails: cells
Format: functional, cell-based, Homo sapiens
runConditions: Homo sapiens, IST-MES1
Description: SANGER: Inhibition of human IST-MES1 cell growth in a cell viability assay.

Query: # return recorded IC50 for entry CN(NC(=O)CC(=O)NN(C)C(=S)c1ccccc1)C(=S)c1ccccc1 [ELESCLOMOL]
Result: 0.0541 µM

Query: # return recorded IC50 for entry `O=S(=O)(O)c1ccc2cc(/N=N/c3cc(S(=O)(=O)O)c4cccnc4c3O)ccc2c1`
Result: > 16 µM

Query: # return recorded IC50 for entry `COc1ccc(-c2cc3nccn3c(Nc3ncccc3C(N)=O)n2)cc1OC`
Result: > 8 µM

Query: # return recorded IC50 for entry C=CC(=O)N1CCCC(Nc2nc(Nc3ccc(N(C)C(=O)CC)cc3)nc3[nH]cnc23)C1 (stereo unspecified)
Result: > 10.2 µM
